Ref: patent US20230272055A1

Molecular target: T1, human Type 1 mutCALR on Ba/F3 cells expressing MPL and Type 1 mutCALR (human)
T1 chain: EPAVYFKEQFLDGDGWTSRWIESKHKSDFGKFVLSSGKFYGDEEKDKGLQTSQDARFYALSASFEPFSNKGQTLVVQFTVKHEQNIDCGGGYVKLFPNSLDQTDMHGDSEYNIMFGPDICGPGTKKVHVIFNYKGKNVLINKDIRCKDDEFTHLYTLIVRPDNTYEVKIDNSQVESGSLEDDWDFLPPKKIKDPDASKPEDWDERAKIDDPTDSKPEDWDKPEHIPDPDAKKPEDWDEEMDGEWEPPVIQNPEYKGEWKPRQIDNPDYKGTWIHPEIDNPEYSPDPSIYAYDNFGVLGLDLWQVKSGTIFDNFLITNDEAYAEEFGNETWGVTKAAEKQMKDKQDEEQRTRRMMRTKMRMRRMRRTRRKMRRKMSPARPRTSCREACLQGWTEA
Test: cell-based or functional assay
Measure: IC50, inhibition of pSTAT5 (µg/mL)

binder="anti-mutCALR antibody clone 46 (antibody, human IgG1, lambda, V domains shown) VH: QVQLVQSGAEVKKPGSSVKVSCKASGGTFSSYAISWVRQAPGQGLEWMGGIIPIFGTANYAQKFQGRVTITADESTSTAYMELSSLRSEDTAVYYCASSPLRGSGWYWHYYYGMDVWGQGTTVTVSS VL: SYELTQPPSVSVAPGKTARITCGGNNIRSKSVHWYQQKPGQAPVLVVYQDSKRPSGIPERFSGSNSGNTATLTISGTQAMDEADYYCQVWDSSTAVFGGGTKLTVLG" measure="IC50, inhibition of pSTAT5" reading_unit=µg/mL observed_value=3.9
binder="anti-mutCALR antibody clone 51 (antibody, human IgG1, lambda, V domains shown, human IgG1) VH: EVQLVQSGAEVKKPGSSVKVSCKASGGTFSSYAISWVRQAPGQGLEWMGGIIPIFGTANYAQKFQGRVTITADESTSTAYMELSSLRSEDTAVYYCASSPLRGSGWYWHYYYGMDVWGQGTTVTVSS VL: SYELTQPPSVSVAPGKTARITCGGNKIGTKSVHWYQQKPGQAPVLVIYQDSKRPSGIPERFSGSNSGNTATLTISGTQAMDEADYYCQAWGSSTVVFGGGTKLTVLG" measure="IC50, inhibition of pSTAT5" reading_unit=µg/mL observed_value=14
binder="anti-mutCALR antibody clone 2 (antibody, human IgG1, lambda, V domains shown, human IgG1) VH: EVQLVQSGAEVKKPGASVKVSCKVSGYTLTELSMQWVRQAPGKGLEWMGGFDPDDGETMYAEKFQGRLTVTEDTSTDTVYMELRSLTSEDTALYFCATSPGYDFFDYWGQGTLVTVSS VL: SYELTQPPSVSVAPGKTARITCGGDNIGSKSVHWYQQKPGQAPVLVVYDDSDRPSGIPERFSGSNSGNTATLTISRVEAGDEADYYCQVWDSSIDHLIFGGGTKVTVLG" measure="IC50, inhibition of pSTAT5" reading_unit=µg/mL observed_value=0.12
